Target: T1, human IL-11 (AAH12506.1, Pro22-Leu199) (human, UniProt P20809 22-199)
T1 construct: The range Pro22-Leu199 counts on AAH12506.1; The Octet runs say only 'human IL-11'; also called hIL-11
T1 chain: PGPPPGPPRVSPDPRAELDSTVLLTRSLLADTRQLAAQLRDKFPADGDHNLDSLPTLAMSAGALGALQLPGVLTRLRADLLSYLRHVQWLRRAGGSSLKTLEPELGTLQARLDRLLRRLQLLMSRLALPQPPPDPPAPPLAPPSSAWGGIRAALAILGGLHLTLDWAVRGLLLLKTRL
Experiment: BLI (Octet), antibody captured, human IL-11 in solution
pKd: −log10 of the molar value.
// label = True if pKd is not less than 10, otherwise False

{"binder": "hz8C8-VHm1 + hz8C8-VLm7-m2 (antibody, human IgG1, kappa, V domains shown, human IgG1 constant regions) VH: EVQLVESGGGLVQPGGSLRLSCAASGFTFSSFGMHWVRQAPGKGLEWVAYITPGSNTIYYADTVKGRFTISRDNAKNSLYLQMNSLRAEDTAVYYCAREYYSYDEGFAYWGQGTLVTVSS VL: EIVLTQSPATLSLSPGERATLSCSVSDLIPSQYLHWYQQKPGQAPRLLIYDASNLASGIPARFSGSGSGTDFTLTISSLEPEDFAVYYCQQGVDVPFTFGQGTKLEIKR", "discrete.label": "True"}

Shift focus to the following entry.
Exam item: Given hz8C8-VHm1 + hz8C8-VLm5 (antibody, human IgG1, kappa, V domains shown, human IgG1 constant regions) VH: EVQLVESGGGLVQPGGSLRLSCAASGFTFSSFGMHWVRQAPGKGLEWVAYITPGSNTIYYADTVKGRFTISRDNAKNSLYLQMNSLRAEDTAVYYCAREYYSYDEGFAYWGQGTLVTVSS VL: EIVLTQSPATLSLSPGERATLSCSVSELLSTNYLHWYQQKPGQAPRLLIYRTSNLASGIPARFSGSGSGTDFTLTISSLEPEDFAVYYCQQGVDVPFTFGQGTKLEIKR , state whether its pKd is at least 10.
Marked response: False
